- SYSTEM_TESTED: SARS-CoV-2 S-RBD (Severe acute respiratory syndrome coronavirus 2)
QUANTITY_MEASURED: pKd
// returns pKd (minus log10 of molar concentration), number only

Looking up O=C(c1ccc(N2CCCCS2(=O)=O)cc1)N1CCN(C(=O)c2ccco2)CC1 [IMB-1C] , I found its pKd recorded as 5.97

----------
- SYSTEM_TESTED: UniProtKB Q9BYF1
- Sequence (Q9BYF1 18-805): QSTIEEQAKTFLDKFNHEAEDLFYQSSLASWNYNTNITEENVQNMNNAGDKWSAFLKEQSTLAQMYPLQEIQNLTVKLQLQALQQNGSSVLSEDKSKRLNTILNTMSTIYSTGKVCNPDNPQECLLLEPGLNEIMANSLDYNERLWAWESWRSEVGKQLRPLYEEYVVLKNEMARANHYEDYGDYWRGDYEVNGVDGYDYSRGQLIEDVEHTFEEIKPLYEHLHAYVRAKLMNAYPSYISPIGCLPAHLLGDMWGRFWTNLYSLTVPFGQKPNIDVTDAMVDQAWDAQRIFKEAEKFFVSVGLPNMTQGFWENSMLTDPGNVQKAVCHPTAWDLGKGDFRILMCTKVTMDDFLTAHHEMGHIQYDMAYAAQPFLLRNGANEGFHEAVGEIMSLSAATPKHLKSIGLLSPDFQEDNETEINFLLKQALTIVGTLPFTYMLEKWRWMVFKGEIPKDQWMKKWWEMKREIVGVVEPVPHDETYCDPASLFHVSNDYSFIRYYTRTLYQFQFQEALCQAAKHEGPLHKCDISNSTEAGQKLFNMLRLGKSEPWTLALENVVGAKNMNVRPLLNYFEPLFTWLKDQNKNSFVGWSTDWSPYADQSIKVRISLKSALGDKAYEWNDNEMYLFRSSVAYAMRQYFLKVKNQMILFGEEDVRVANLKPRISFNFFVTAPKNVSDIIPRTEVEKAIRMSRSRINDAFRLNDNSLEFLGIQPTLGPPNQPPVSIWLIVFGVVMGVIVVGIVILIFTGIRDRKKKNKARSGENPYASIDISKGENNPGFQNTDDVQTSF
QUANTITY_MEASURED: pKd
# log scale: pKd equals minus log10 of the concentration in mol/L

Lab note: compound O=C(c1ccc(N2CCCCS2(=O)=O)cc1)N1CCN(C(=O)c2ccco2)CC1 [IMB-1C] tested on UniProtKB Q9BYF1; recorded pKd was 5.95

Data provenance is paper PMC11765512.
